Where these numbers come from: patent US20030176334A1

- Target desc: T1, integrin αIIbβ3, purified and immobilized (UniProt P08514 32-1039; P05106 27-788)
- T1 construct: Purified integrin coated at 50 ng per well; also called α11bβ3
- Assay text: competition, vitronectin (VN) binding to immobilized αIIbβ3; individual assay
pIC50: −log10 of the molar value.
# pIC50 listing for each entry below

Binder | Value comparator | pIC50
YTAECKPQVTRGDVF (Linear synthetic peptide; also called VN-derived amino acid residues 35-49) [peptide 62880, YTAECKPQVTRGDVF] | = | 6.01
GVVRNNEALARLS (Linear synthetic peptide; also called αv-derived amino acid residues 655-667) [peptide 62503, GVVRNNEALARLS] | < | 4.00
TRQVVCDLGNPM (Linear synthetic peptide; also called αv-derived amino acid residues 676-687) [peptide 62411, TRQVVCDLGNPM] | < | 4.00
TDVNGDGRHDL (Linear synthetic peptide; also called αIIb-derived amino acid residues 296-306) [peptide 62502, TDVNGDGRHDL] | = | 5.30
